TARGET: human prostanoid TP receptor (Homo sapiens)
Construct: expressed in transfected cells
Sequence (P21731 whole entry): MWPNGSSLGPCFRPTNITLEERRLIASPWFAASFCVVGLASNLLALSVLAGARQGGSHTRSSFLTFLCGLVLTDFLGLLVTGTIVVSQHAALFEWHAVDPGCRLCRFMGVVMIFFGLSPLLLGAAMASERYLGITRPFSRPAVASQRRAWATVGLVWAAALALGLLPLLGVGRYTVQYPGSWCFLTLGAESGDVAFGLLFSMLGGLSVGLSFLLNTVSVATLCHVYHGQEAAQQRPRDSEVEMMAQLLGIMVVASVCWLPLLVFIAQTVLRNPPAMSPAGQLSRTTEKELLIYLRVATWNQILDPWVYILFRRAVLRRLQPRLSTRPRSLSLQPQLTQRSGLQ
ASSAY_TEXT: FLIPR Ca2+ signaling antagonist assay, TP receptor stable cell line
Format: cell-based
RUN_PARAMETERS: HEK-293 EBNA stable cells, standard agonist U-46619; NA = inactive (no antagonism or Kb≧10,000 nM)
OUTCOME_MEASURE: Kb (nM)

# count of solved cases: 2
CCC(CC)COc1ccc(Br)cc1Cn1nc(CCC(=O)O)cc1C = 9
Cc1cc(CCC(=O)O)nn1Cc1cc(C(F)(F)F)ccc1OCC1CCCC1 = 7

(I) CCC(CC)COc1ccc(Cl)cc1Cn1nc(CCC(=O)O)cc1C
(II) Cc1cc(CCC(=O)NS(=O)(=O)C(F)(F)F)nn1Cc1cc(Cl)ccc1OCc1ccc(Cl)cc1
(III) Cc1cc(CCC(=O)O)nn1Cc1cc(Br)ccc1OCC1CCCC1
(IV) Cc1cc(CCC(=O)O)nn1Cc1cc(Cl)ccc1OCC1CCCC1
Q: Ordering criterion: Kb; begin with the maximum. To answer, arrange all of the labels according to the requested order.
Result: III, II, I, IV
